Parameter inhibition: see the listing below.
target: Protein kinase C alpha type (Homo sapiens); test: Inhibition of PKCalpha in human PC3 cell lysates at 10 uM using desthiobiotin-tagged ATP probe AX9989 followed by trypsinization by LC/MS analysis; conditions: PC-3

C[C@H](NC(=O)c1ccc2nc(N[C@H]3CC[C@H](O)CC3)c3nccn3c2c1)c1ccccc1 : < 35%
O=C(NC1(c2ccccc2)CC1)c1ccc2nc(N[C@H]3CC[C@H](O)CC3)c3nccn3c2c1 : < 35%

Please find the next compound below.
Find the recorded inhibition belonging to O=C(NC1(c2ccccc2)CCC1)c1ccc2nc(N[C@H]3CC[C@H](O)CC3)c3nccn3c2c1 and report it.
< 35%

###

biological target: Casein kinase I isoform alpha (Homo sapiens) (UniProt P48729); assay: Inhibition of CK1alpha in human PC3 cell lysates at 10 uM using desthiobiotin-tagged ATP probe AX9989 followed by trypsinization by LC/MS analysis; settings: PC-3
Sequence (P48729 2-337 limits assumed): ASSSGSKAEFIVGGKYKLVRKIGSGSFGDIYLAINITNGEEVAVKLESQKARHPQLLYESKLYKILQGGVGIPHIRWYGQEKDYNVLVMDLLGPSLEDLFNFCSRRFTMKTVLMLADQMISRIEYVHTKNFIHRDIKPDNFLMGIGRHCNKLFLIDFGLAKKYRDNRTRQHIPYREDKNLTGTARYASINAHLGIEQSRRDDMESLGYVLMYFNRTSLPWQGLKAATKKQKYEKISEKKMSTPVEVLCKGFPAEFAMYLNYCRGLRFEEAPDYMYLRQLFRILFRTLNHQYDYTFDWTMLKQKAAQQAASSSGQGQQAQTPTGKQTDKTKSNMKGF
# maps each entry to its inhibition

O=C(N[C@H](CO)c1ccccc1)c1ccc2nc(N[C@H]3CC[C@H](O)CC3)c3nccn3c2c1 : < 35%
O=C(NC1(c2ccc(F)cc2)CC1)c1ccc2nc(N[C@H]3CC[C@H](O)CC3)c3nccn3c2c1 : < 35%

Name the reported inhibition value associated with the compound O=C(NC1(c2ccccc2)CCC1)c1ccc2nc(N[C@H]3CC[C@H](O)CC3)c3nccn3c2c1
< 35%

###

Target: Phosphorylase b kinase gamma catalytic chain, liver/testis isoform (Homo sapiens) (UniProt P15735)
Sequence (whole entry): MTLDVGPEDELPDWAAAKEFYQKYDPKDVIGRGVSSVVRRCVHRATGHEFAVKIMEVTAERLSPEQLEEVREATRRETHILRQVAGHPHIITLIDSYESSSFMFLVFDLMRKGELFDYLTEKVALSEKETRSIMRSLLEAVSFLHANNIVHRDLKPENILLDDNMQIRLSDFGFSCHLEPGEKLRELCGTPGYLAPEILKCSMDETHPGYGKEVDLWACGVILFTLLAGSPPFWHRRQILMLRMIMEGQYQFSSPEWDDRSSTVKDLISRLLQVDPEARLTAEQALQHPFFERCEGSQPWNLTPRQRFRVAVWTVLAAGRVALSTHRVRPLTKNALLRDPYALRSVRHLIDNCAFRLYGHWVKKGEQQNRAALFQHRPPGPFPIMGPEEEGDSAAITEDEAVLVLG
Assay: Inhibition of PHKgamma2 in human PC3 cell lysates at 10 uM using desthiobiotin-tagged ATP probe AX9989 followed by trypsinization by LC/MS analysis
Details: PC-3
value_kind: inhibition

Some molecules with known inhibition results, for comparison:
CCC[C@@H](NC(=O)c1ccc2nc(N[C@H]3CC[C@H](O)CC3)c3nccn3c2c1)c1ccccc1 : < 35%
O=C(NC1(c2ccccc2)CC1)c1ccc2nc(N[C@H]3CC[C@H](O)CC3)c3nccn3c2c1 : < 35%

Now, please, on to the next molecule.
Which inhibition value is on record for CC[C@@H](NC(=O)c1ccc2nc(N[C@H]3CC[C@H](O)CC3)c3nccn3c2c1)c1ccccc1 ?
< 35%

###

target: Glycogen synthase kinase-3 beta (Homo sapiens); assay: Inhibition of GSK3beta in human PC3 cell lysates at 10 uM using desthiobiotin-tagged ATP probe AX9989 followed by trypsinization by LC/MS analysis; details: PC-3
value_kind: inhibition

Reference set, count: 5
CC[C@@H](NC(=O)c1ccc2nc(N[C@H]3CC[C@H](O)CC3)c3nccn3c2c1)c1ccccc1 : < 35%
O=C(NC1(c2ccccc2)CC1)c1ccc2nc(N[C@H]3CC[C@H](O)CC3)c3nccn3c2c1 : < 35%
O=C(O)c1ccc2nc(N[C@H]3CC[C@H](O)CC3)c3nccn3c2c1 : 98.6%
CC(C)(NC(=O)c1ccc2nc(N[C@H]3CC[C@H](O)CC3)c3nccn3c2c1)c1ccccc1 : < 35%
O=C(N[C@H](CO)c1ccccc1)c1ccc2nc(N[C@H]3CC[C@H](O)CC3)c3nccn3c2c1 : < 35%

State the recorded inhibition for this entry: C[C@H](NC(=O)c1ccc2nc(N[C@H]3CC[C@H](O)CC3)c3nccn3c2c1)c1ccccc1
< 35%

Report inhibition for O=C(NC1(Cc2ccc(F)cc2)CC1)c1ccc2nc(N[C@H]3CC[C@H](O)CC3)c3nccn3c2c1 please.
< 35%

Need inhibition, item C[C@@H](NC(=O)c1ccc2nc(N[C@H]3CC[C@H](O)CC3)c3nccn3c2c1)c1ccccc1
< 35%
